Reference for the values: patent US20230000870A1

# experimental-system: CDK9/Cyclin T1 complex (Homo sapiens, UniProt P50750)
# Sequence (P50750 whole entry): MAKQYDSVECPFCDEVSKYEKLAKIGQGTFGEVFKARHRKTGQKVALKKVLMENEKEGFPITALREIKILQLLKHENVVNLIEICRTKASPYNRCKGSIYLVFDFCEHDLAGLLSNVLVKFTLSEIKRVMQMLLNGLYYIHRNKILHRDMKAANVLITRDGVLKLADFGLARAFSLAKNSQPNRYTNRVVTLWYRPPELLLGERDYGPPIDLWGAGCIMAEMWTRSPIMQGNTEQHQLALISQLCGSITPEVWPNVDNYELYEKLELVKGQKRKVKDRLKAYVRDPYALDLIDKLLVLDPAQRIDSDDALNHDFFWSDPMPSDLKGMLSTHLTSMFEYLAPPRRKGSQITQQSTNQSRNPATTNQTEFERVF
# Sequence (O60563 whole entry partner): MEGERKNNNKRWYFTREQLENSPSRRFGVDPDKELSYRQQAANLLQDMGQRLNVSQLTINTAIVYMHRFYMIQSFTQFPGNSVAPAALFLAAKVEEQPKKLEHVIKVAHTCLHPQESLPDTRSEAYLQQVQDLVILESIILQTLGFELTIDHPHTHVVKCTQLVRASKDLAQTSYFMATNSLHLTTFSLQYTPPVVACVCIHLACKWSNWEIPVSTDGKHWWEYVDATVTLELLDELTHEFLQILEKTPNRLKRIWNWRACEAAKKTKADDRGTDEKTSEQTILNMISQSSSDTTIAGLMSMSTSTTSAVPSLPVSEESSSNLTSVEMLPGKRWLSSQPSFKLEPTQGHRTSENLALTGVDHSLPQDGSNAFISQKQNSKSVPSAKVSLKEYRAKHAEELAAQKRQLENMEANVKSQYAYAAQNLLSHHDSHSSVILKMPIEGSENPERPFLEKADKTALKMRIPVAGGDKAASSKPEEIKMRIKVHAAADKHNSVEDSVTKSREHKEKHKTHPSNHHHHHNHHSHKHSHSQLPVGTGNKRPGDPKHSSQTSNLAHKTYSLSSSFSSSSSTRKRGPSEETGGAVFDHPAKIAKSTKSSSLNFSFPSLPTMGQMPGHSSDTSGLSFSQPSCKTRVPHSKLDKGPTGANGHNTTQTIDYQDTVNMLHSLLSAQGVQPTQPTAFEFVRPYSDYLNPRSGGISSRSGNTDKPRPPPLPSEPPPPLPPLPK
# procedure-summary: CDK9 kinase inhibition assay (Caliper/LabChip EZ Reader)
# Assay type: biochemical
# test-parameters: CDK9/Cyclin T1 8 nM, ATP 2 mM, 15 min at 27° C.
# Protocol: Compounds of the invention were assayed for inhibition of CDK7, CDK9, CDK12, and CDK2 activity at Biortus Biosciences (Jiangyin, Jiangsu Province, P.R. of China) using kinase assays for each CDK developed with a Caliper/LabChip EZ Reader (Perkin Elmer, Waltham, Mass.). […]
pIC50: −log10 of the molar value.
compounds and their reported pIC50

So what's the measured pIC50 for this one? CNC(=O)c1ccc2c(-c3nc(NC4CCCNC4)ncc3C(F)(F)F)c[nH]c2n1 (stereo not drawn) [Compound 297] 5.30 to 6.70

###

# experimental-system: CDK7/Cyclin H/MAT1 complex (Homo sapiens, UniProt P50613)
# Sequence (P50613 whole entry): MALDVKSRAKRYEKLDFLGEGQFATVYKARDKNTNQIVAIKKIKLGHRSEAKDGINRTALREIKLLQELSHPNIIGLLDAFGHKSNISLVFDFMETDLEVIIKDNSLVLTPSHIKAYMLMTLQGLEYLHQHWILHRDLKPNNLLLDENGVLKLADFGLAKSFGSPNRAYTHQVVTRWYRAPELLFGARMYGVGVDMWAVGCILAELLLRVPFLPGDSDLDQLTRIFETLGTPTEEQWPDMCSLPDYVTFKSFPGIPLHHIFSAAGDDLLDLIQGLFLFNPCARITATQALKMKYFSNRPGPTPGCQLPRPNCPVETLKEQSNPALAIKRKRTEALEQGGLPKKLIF
# Sequence (P51946 whole entry partner): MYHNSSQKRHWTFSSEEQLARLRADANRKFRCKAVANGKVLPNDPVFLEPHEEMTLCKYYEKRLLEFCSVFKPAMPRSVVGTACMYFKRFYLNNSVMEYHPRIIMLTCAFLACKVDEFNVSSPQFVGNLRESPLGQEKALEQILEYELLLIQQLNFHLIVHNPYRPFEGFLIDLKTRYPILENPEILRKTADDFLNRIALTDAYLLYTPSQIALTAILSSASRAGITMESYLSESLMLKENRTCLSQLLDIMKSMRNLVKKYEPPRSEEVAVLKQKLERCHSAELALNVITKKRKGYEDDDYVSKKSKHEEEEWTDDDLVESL
# Sequence (P51948 whole entry partner): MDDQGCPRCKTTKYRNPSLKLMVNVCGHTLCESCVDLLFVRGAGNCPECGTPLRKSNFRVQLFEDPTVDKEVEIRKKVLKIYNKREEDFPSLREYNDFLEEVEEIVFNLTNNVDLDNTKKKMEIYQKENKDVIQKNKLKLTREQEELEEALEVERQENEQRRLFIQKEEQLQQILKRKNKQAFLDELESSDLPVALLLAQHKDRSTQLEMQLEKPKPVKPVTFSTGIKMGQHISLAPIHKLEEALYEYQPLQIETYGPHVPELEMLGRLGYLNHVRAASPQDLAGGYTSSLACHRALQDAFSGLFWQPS
# procedure-summary: CDK7 kinase inhibition assay (Caliper/LabChip EZ Reader)
# test-parameters: CDK7/Cyclin H/MAT1 6 nM, ATP 2 mM, 35 min at 27° C.
Parameter IC50: see the listing below.

# count of solved cases: 3
N#Cc1ccc2[nH]cc(-c3nc(NC4CCCNC4)ncc3C(F)(F)F)c2c1 (stereo not drawn)
20 to 200 nM
Fc1ccc2[nH]cc(-c3nc(NC4CCCNC4)ncc3Cl)c2c1 (stereo not drawn)
< 20 nM
CCc1cnc(N[C@H]2CCCNC2)nc1-c1c[nH]c2c(C)cccc12
< 20 nM

What measured IC50 goes with Cc1cccc2c(-c3nc(NC4CCCNC4)ncc3CC(C)C)c[nH]c12 (stereo not drawn) ? 200 to 5000 nM

Next up: C#Cc1cnc(NC2CCCNC2)nc1-c1c[nH]c2ccccc12 (stereo not drawn) < 20 nM

And Clc1cnc(NC2CNCCC2c2ccccc2)nc1-c1c[nH]c2ccccc12 (stereo not drawn) ? ≥ 5000 nM

What would you report for CCc1cnc(N[C@H]2CCCNC2)nc1-c1n[nH]c2c(F)cccc12 ? < 20 nM

What about FC(F)(F)c1cnc(NC2CCCNC2)nc1-c1c[nH]c2c(Cl)cccc12 (stereo not drawn) ? < 20 nM

Also check CCc1cnc(NC2CCCNC2)nc1-c1c[nH]c2ccccc12 (stereo not drawn) 20 to 200 nM

###

# experimental-system: CDK2/Cyclin E1 complex (Homo sapiens, UniProt P24941)
# procedure-summary: CDK2 kinase inhibition assay (Caliper/LabChip EZ Reader)
# test-parameters: CDK2/Cyclin E1 0.5 nM, ATP 2 mM, 35 min at 27° C.
Measured IC50, listed per entry for reference.

O=C(c1ccc2c(-c3nc(NC4CCCNC4)ncc3C(F)(F)F)c[nH]c2c1)N1CC(O)C(F)(F)C1 (stereo not shown) [Compound 349]
0.2 to 5 µM
CNC(=O)c1cccc2c(-c3nc(NC4CCCNC4)ncc3C(F)(F)F)cn(C)c12 (stereo not shown)
≥ 5 µM
FCCc1cnc(NC2CCCNC2)nc1-c1c[nH]c2ccccc12 (stereo not shown)
≥ 5 µM

What measured IC50 goes with FC(F)(F)c1cnc(NC2CCCNC2)nc1-c1n[nH]c2ccccc12 (stereo not shown) ? 0.2 to 5 µM

###

# experimental-system: CDK7/Cyclin H/MAT1 complex (Homo sapiens)
# procedure-summary: CDK7 kinase inhibition assay (Caliper/LabChip EZ Reader)
# test-parameters: CDK7/Cyclin H/MAT1 6 nM, ATP 2 mM, 35 min at 27° C.
IC50 reference

FC(F)(F)c1cnc(NC2CCCNC2)nc1-c1n[nH]c2ccccc12 (centres unmarked) [Compound 103]
< 0.02 µM
CS(=O)(=O)c1cccc2c(-c3nc(NC4CCCNC4)ncc3C(F)(F)F)c[nH]c12 (centres unmarked) [Compound 141]
< 0.02 µM

I am curious: what IC50 value has been reported for Cc1cccc2c(-c3nc(NC4CCCNC4)ncc3F)c[nH]c12 (centres unmarked) [Compound 138] ? 0.02 to 0.2 µM

Same question for CCc1cnc(NC2CCCNC2)nc1-c1c[nH]c2cc(C#N)ccc12 (centres unmarked) [Compound 246] please. < 0.02 µM

// query: Clc1cnc(NC2CCCNC2)nc1-c1c[nH]c2cccnc12 (centres unmarked) [Compound 146] ≥ 5 µM

And for CNC(=O)c1cccc2c(-c3nc(N[C@H]4CCCNC4)ncc3C(F)(F)F)c[nH]c12 [Compound 173] ? < 0.02 µM

Now give it for CC1(O)CCC(c2cccc3c(-c4nc(NC5CCCNC5)ncc4C(F)(F)F)c[nH]c23)CC1 (centres unmarked) [Compound 193] too. 0.02 to 0.2 µM

For Clc1cnc(NC2CCCNC2)nc1-c1c[nH]c2ccc(N3CCOCC3)cc12 (centres unmarked) [Compound 151] then? 0.2 to 5 µM
